// provenance: patent US20180355043A1

target: T1, DR4G97: Human HLA-DRA1*01:02/DRB1*15:01 ECD with collagen II peptide CII_1236-1249 (human)
T1 construct: also called DRB1*15:01 CII_1236
testDetails: MSD ECL; antigen coated; protocol of Example 3;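 also: antibodies tested at 0.04–5 µg/ml on plate-coated soluble HLA-DR carrying peptide on the beta chain N-terminus, bound antibody detected by SulfoTag anti-human kappa secondary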
quantityKind: ECL signal (ECL)
Please state the figure in ECL; there is no need to write the unit.

{"binder": "DR4B4 (antibody, V domains shown, also called Lym-1 re-engineered as IgG2sigma) VH: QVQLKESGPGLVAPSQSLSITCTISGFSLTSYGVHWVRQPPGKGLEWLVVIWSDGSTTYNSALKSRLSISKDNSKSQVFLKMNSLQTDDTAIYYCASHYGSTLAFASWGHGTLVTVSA VL: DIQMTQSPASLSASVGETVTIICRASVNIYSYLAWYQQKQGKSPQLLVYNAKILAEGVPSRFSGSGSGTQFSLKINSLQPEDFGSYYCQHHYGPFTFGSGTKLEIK", "ECL signal, ECL": 210}

Moving on to the next binder.
// lookup ECL signal for DR4B98 (antibody, human IgG2, kappa, V domains shown, also called VH DR4H50 / VL PH9L3) VH: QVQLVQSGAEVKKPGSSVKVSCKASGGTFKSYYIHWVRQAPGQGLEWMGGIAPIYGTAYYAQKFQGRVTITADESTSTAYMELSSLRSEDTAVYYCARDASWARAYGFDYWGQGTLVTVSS VL: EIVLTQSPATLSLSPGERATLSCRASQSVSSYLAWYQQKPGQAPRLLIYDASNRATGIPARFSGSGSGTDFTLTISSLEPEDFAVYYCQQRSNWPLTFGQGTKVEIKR 80800
